# System: M. mycetomatis genome strain MM55
# method: CLSI M38-A2 based in vitro susceptibility screening (XTT or resazurin), growth at fixed concentration
# Format: cell-based, Madurella mycetomatis
# test_conditions: Madurella mycetomatis, 100 uM, replicate 3, MM55; read-out: Percentage survival at 100um, 100 uM A
// assign criterion met if activity at 100 µM falls strictly below 70%, else criterion not met (ties count as criterion not met)

Example entries and their recorded answers appear below.
| molecule | classification |
| --- | --- |
| Nc1nc2c(ncn2/C=C2/CC2(CO)CO)c(=O)[nH]1 [MMV1782210] | criterion not met |
| Cc1nc(N(C)C(=O)Cc2ccc(-c3ccccn3)cc2)sc1S(N)(=O)=O [MMV1580486] | criterion met |
| CC[C@H](NC(=O)[C@H](C)NC)C(=O)N1C[C@@H](O)C[C@H]1Cc1c(-c2[nH]c3cc(F)ccc3c2C[C@@H]2C[C@H](O)CN2C(=O)[C@H](CC)NC(=O)[C@H](C)NC)[nH]c2cc(F)ccc12 [MMV1557856] | criterion met |

Please look at the following molecule next.
**Query** Lab note: activity at 100 µM threshold 70%. Does this molecule come in strictly under it? COc1cc(NS(=O)(=O)c2ccc(C)cc2)c2ncccc2c1 [MMV098836]
**Result** criterion met

----------
# Tested on: M. mycetomatis genome strain MM55
# method: CLSI M38-A2 based in vitro susceptibility screening (XTT or resazurin), growth at fixed concentration
# Assay type: cell-based, Madurella mycetomatis
# test_conditions: Madurella mycetomatis, 25 uM, replicate A; read-out: Percentage survival at 25um, 25 um A
Answer each item with its documented activity at 25 µM.
One number for each entry, in %.

Take a look at these entries with their results.
| compound | number |
| --- | --- |
| CCc1cc(CCCOc2c(C)cc(-c3noc(C(F)(F)F)n3)cc2C)on1 | 70.7 |
| CC1=C(/C=C/C(C)=C/C=C/C(C)=C/C(=O)Nc2ccc(O)cc2)C(C)(C)CCC1 | 69.1 |
| O=c1[nH]c(=O)n(Cc2cccc(Oc3ccccc3)c2)cc1Nc1ccccc1 | 75.5 |
| O=C(NC(=O)N1CCCc2ccccc21)c1cccc(Cl)c1 | 96.8 |
| Cc1ccccc1NC(=O)Nc1cccc([N+](=O)[O-])c1 | 95.8 |

For every item in the list below, what is its measured activity at 25 µM?
1. O=C(Nc1ccc(-c2ccccc2)cc1)C1=C(O)C(Cc2ccccc2)OC1=O (stereo not drawn)
2. CCOC(=O)N1CCN(c2ccc(Cl)cc2)CC1
3. Cc1cc(O)c2c(c1)C(=O)c1c(I)c(O)c(I)c(O)c1C2=O
4. NC(=O)c1nccn([C@@H]2O[C@H](CO)[C@@H](O)[C@H]2O)c1=O

**Result**
[71.9, 91.8, 10.6, 102]

----------
# Test system: M. mycetomatis genome strain MM55
# method: CLSI M38-A2 based in vitro susceptibility screening (XTT or resazurin), growth at fixed concentration
# Format: cell-based, Madurella mycetomatis
# test_conditions: Madurella mycetomatis, read-out: Percentage survival at 25um, 25 uM B
metric_name: activity at 25 µM (%)
One number for each entry, in %.

| compound | unit_descriptor | activity at 25 µM |
| --- | --- | --- |
| O=C(NC12CC3CC(CC(C3)C1)C2)c1cc2ccccc2[nH]1 [MMV1578577] | % | 67.1 |
| Nc1nc(F)nc2c1ncn2[C@@H]1O[C@H](CO)[C@@H](O)[C@@H]1O [MMV637413, Fludarabine, reference compound] | % | -4.01 |
| NC1(C(=O)O)CCP(=O)(O)CC1 (centres unmarked) [MMV1593538] | % | 68.9 |
| CC[C@H](CO)Nc1nc(NCc2ccccc2)c2ncn(C(C)C)c2n1 [MMV003820] | % | 62.4 |

Now look at this entry.
**Query** Any idea what its activity at 25 µM is? The compound is CC1(C)[C@H](C(=O)O)N2C(=O)C[C@H]2S1(=O)=O [MMV637945]
**Result** 95.1

# credit: paper PMC8815882
